Measured Inhibition by item
tested on: Cryptococcus neoformans; details: Concentration 32 ug.mL-1; ASSAY_TEST Inhibition of Fungal Growth; detection method Resazurin; Absorption (OD600-OD570); plate type 384well; NBS; CORNING #3640
Description: Antifungal activity against Cryptococcus neoformans H99 ATCC 208821 (CO-ADD:FG_002); MIC in YNB media using NBS plates, by Resazurin OD(600-570)
Measured potencies and affinities stand elsewhere.

# compound, Inhibition
data = [
    ("CN(C(=O)Cn1nc2n(Cc3cccs3)c(=O)c3sccc3n2c1=O)c1ccccc1", "-9.21%"),
    ("COc1ccc(-c2noc(Cn3nc4ccc(-c5ccccc5)nn4c3=O)n2)cc1OC", "-11.77%"),
    ("COc1cc(NC(=O)Cn2nc3c(N4CCCC(C)C4)nccn3c2=O)cc(OC)c1 (stereo not given)", "-46.51%"),
    ("O=C(Cn1nc2c3cc(-c4ccc(F)cc4)nn3ccn2c1=O)N1CCCc2ccccc21", "-21.22%"),
    ("Cc1ccc(CNC(=O)Cn2nc3ccc(SCc4ccc(Cl)cc4)nn3c2=O)cc1", "-27.26%"),
    ("COc1ccccc1Cn1c(=O)c2sccc2n2c(=O)n(Cc3ccc(Br)cc3)nc12", "-8.06%"),
    ("CC(C)Cn1c(=O)c2sccc2n2c(=O)n(CC(=O)NC(C)C)nc12", "-7.6%"),
    ("CCOc1ccc(-n2ccn3c(SCC(=O)c4ccc(F)cc4)nnc3c2=O)cc1", "-5.27%"),
    ("CCC(Sc1nnc2c(=O)n(-c3ccccc3)ccn12)C(=O)Nc1ccc(OC)cc1OC (stereo not given)", "-10.74%"),
    ("Cc1cc2nn(CC(=O)N3CCCc4ccccc43)c(=O)n2c(Nc2ccc(F)cc2)n1", "-3.85%"),
    ("CC1CCc2c(sc3ncn4c(=O)n(CC(=O)Nc5ccc6c(c5)CCC6)nc4c23)C1 (stereo not given)", "-27.54%"),
    ("CCOc1ccc(-n2ccn3c(SCC(=O)c4ccc(C)cc4C)nnc3c2=O)cc1", "-5.48%"),
    ("COc1ccccc1NC(=O)Cn1nc2n(CCCOC(C)C)c(=O)c3ccccc3n2c1=O", "-35.55%"),
    ("COc1ccc(-c2cc3c4nn(CC(=O)Nc5cc(Cl)ccc5C)c(=O)n4ccn3n2)cc1", "-6.61%"),
    ("COc1cc(NC(=O)Cn2nc3n(CCc4ccccc4)c(=O)c4ccccc4n3c2=O)cc(OC)c1", "-22.83%"),
    ("O=C(Cn1nc2c(N3CCOCC3)nc3ccccc3n2c1=O)Nc1ccccc1Br", "-27.52%"),
    ("CCOc1ccc(-n2ccn3c(SCC(=O)Nc4ccc(CC)cc4)nnc3c2=O)cc1", "-18.11%"),
    ("COc1cccc(-n2ccn3c(SCC(=O)N4CCN(c5ccccc5F)CC4)nnc3c2=O)c1", "-10.18%"),
    ("CC(C)c1ccc(NC(=O)CSc2nnc3c(=O)n(-c4ccccc4)ccn23)cc1", "-12.85%"),
    ("CC(=O)c1cccc(NC(=O)Cn2c(=O)c3nnc(C(C)C)n3c3ccccc32)c1", "-19.11%"),
]
